- experimentalSystem: human 5-HT1A receptor (Homo sapiens, UniProt P08908)
- Sequence (P08908 1-422): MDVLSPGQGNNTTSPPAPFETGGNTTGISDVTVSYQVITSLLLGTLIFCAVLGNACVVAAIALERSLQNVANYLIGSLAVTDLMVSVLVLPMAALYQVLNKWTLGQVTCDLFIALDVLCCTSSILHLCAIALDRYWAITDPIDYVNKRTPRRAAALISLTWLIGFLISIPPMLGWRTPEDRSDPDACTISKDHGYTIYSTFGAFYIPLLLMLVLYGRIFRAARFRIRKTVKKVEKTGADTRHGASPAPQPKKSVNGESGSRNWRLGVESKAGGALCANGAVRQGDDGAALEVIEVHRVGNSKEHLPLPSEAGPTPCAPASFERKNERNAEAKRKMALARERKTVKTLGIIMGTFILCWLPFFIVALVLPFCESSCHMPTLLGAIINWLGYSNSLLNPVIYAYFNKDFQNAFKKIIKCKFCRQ
resultType: pKi
Kindly note that pKi refers to -log10 of the concentration in mol/L and answer with the value alone.

Query: Using known records, supply pKi for CC[C@@H](CO)NC(=O)[C@@H]1C=C2c3cccc4c3c(cn4C)C[C@H]2N(C)C1 [Methysergide]
Reply: 7.59

Query: Using known records, supply pKi for CN1CCCCC1CCN1c2ccccc2Sc2ccc([S+](C)[O-])cc21 (stereo not drawn) [Mesoridazine]
Reply: 7.48

Query: Using known records, supply pKi for CN1C[C@@H](CO)C=C2c3cccc4[nH]cc(c34)C[C@H]21 [ST057540]
Reply: 8.64
